- assaySystem: Rac GTPase-activating protein 1 (Homo sapiens)
- assayExplanation: blockers of MgcRacGAP-driven Rac1 GTP hydrolysis – biochemical, ADP Hunter fluorescence, primary and confirmatory, confirmation (AID 624330);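 also: fluorescence reports GDP produced by GAP-driven GTP hydrolysis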
- conditionLabel: MgcRacGAP-stimulated Rac1 GTP hydrolysis, at 30 µM, stronger effect = higher value, GST-tagged Rac1 F28L mutant substrate
The campaign covered roughly 340,000 compounds. About 2,100 (0.62%) were called active. These entries were drawn from the full list. Entries with a potency or affinity are not part of this list.
observedProperty: inhibition (%)
Express your answer in %, writing the number without its unit.

Solved cases below.
compound	observedProperty	unitOfMeasurement	number
COc1ccc(NC(=O)c2c[nH]c(=O)n(-c3ccc(C)c(C)c3)c2=O)cc1OC	inhibition	%	-10.4
Cc1cccc(C(=O)Nc2cccc(C(=O)N/N=C/c3cccc(C)n3)c2)c1	inhibition	%	13.9
CCOC(=O)CC1=NN(c2ccccc2)C(=O)/C1=C\c1ccc(N(C)C)cc1	inhibition	%	12
COC(=O)c1c(C)[nH]c(C(=O)C(C)OC(=O)c2ccco2)c1C (stereo not given)	inhibition	%	5.7
COc1cccc(C(=O)N2CCN(Cc3ccc4c(c3)OCO4)CC2)c1OC	inhibition	%	9.39
CN(C)c1ccc(/C=C2\SC(=O)N(CC(O)Cn3c4ccccc4c4ccccc43)C2=O)cc1 (stereo not given)	inhibition	%	9.97
COc1ccc(/C=N/Nc2ccc(C(=O)O)cc2)c(OC)c1OC	inhibition	%	5.84
COC(=O)c1ccc2nc(C)c(C)nc2c1	inhibition	%	2.34
CN(C)c1ccc(/C=C2\CCCc3c2nc2ccccc2c3C(=O)O)cc1	inhibition	%	28.8
O=C(CSc1nc2ccccc2o1)NCC1CCCO1 (stereo not given)	inhibition	%	5.06

Which value of inhibition has been reported for COC(=O)c1ccc(/C=C/C(=O)O)cc1 in the records? 14.6

Would you mind telling me what inhibition value was observed for O=S(=O)(Nc1nc2c(s1)CCCC2)c1ccc2ccccc2c1 ? 8.29

What value of inhibition has been reported for the following compound? COc1cc(SC)ccc1C(=O)OCC(=O)NCCC1=CCCCC1 -5.82

I'd like to know its inhibition. The compound in question is COC(=O)c1ccc2c(c1)C(=O)/C(=C/c1ccc(O)cc1)O2 30.8

Reported inhibition for CCN(CC)c1ccc(CNc2ccc(Br)cn2)cc1 : what is it? 4.81

---

- assaySystem: Rac GTPase-activating protein 1 (Homo sapiens) (UniProt Q9H0H5)
- Sequence (Q9H0H5 whole entry, looked up): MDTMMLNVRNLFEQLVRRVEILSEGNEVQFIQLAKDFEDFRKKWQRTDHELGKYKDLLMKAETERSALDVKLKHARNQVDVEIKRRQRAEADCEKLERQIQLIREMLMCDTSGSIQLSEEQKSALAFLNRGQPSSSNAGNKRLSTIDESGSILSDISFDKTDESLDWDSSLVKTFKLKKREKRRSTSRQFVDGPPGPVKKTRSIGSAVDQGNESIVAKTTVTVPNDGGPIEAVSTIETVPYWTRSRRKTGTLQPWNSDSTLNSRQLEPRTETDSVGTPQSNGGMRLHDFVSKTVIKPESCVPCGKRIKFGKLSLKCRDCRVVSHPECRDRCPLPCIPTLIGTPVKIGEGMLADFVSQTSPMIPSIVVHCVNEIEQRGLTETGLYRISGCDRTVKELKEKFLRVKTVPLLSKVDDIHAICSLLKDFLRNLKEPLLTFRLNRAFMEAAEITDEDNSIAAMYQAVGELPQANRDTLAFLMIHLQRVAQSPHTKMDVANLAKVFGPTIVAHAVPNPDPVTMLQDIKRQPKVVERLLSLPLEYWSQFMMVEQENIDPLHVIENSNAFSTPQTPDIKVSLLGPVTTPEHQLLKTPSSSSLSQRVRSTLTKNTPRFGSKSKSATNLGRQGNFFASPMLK
- assayExplanation: blockers of MgcRacGAP-driven Rac1 GTP hydrolysis – biochemical, ADP Hunter fluorescence, primary and confirmatory, confirmation (AID 624330);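 also: fluorescence reports GDP produced by GAP-driven GTP hydrolysis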
- conditionLabel: MgcRacGAP-stimulated Rac1 GTP hydrolysis, at 30 µM, stronger effect = higher value, GST-tagged Rac1 F28L mutant substrate
Among all 340,000 compounds or so, about 2,100 (0.62%) were called active. A selection follows. Entries with a potency or affinity are not part of this list.
observedProperty: inhibition (%)
The response must be a number in % with no trailing unit.

Example cases with answers are listed next.
molecule	assaySystem	inhibition / %
O=[N+]([O-])c1c(Nc2ccc(O)cc2)cc(Cl)c2nonc12	Rac GTPase-activating protein 1 (Homo sapiens) (UniProt Q9H0H5)	16.8
CCCCc1ccc(S(=O)(=O)NCCCN2CCCC2=O)cc1	Rac GTPase-activating protein 1 (Homo sapiens) (UniProt Q9H0H5)	6.42
CN(C)CCNC(=O)c1cccc2nc3cccc(F)c3nc12	Rac GTPase-activating protein 1 (Homo sapiens) (UniProt Q9H0H5)	14
O=[N+]([O-])c1ccc2c(c1)Cc1cc(F)ccc1-2	Rac GTPase-activating protein 1 (Homo sapiens) (UniProt Q9H0H5)	-1.78

Consider the molecule Fc1ccc(-n2cnnn2)c(F)c1 and give its measured inhibition. 3.22

---

# inhibition annotations
- assaySystem: Rac GTPase-activating protein 1 (Homo sapiens)
- assayExplanation: blockers of MgcRacGAP-driven Rac1 GTP hydrolysis – biochemical, ADP Hunter fluorescence, primary and confirmatory, confirmation (AID 624330);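 also: fluorescence reports GDP produced by GAP-driven GTP hydrolysis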
- conditionLabel: MgcRacGAP-stimulated Rac1 GTP hydrolysis, at 30 µM, stronger effect = higher value, GST-tagged Rac1 F28L mutant substrate
The campaign covered roughly 340,000 compounds. About 2,100 (0.62%) were called active. A selection follows. Entries with a potency or affinity are not part of this list.

molecule	result
Cc1nc(Cc2nnc(SCC(=O)N3CCN(c4ccc(F)cc4)CC3)o2)cs1	0.95% (inactive)
CN1CCN(/N=C/c2ccc(N(C)c3ccccc3)cc2)CC1	27.2% (inactive)
Cc1cccc(NS(=O)(=O)c2cccc(C(=O)N3CCCCCC3)c2)c1	7.68% (inactive)
CCN(C[C@H]1N[C@@](Cc2ccccc2)(C(=O)OC)[C@H]2C(=O)N(Cc3ccccc3)C(=O)[C@@H]12)C(=O)Nc1ccc(C)cc1	4.71% (inactive)
CNC(=O)c1c(NC(=O)c2ccc(S(=O)(=O)N3CC(C)OC(C)C3)cc2)sc2c1CCN(C(C)C)C2 (stereo unspecified)	11.2% (inactive)
COc1cc(/C=N/Nc2ccccn2)ccc1OCC(C)C	1.63% (inactive)
COc1ccc(Br)cc1CN1CCSCC1	19.9% (inactive)
CCOc1ccc(/C=N/Nc2ccccn2)cc1OC	6.25% (inactive)
COc1ccccc1N(CC(=O)Nc1ccc(Cc2ccncc2)cc1)S(=O)(=O)c1ccccc1	0.87% (inactive)
O=C(CCc1ccccc1)NNC(=O)COc1ccccc1	11.8% (inactive)

Reported inhibition, molecule COc1ccc(S(=O)(=O)N2CCN(Cc3c[nH]c4ccccc34)CC2)cc1 : ____ -10.1% (inactive)

If you can, please state the reported inhibition value of CN(C)S(=O)(=O)c1cccc(C(=O)NCCc2ccccc2)c1 . 10.5% (inactive)

Quick check: inhibition of CC1c2ccccc2SC(CCCN(C)C)c2ccccc21 (stereo unspecified) ? 5.84% (inactive)

// inhibition lookup, key: CN(C(=O)CCc1nc(-c2ccccc2F)no1)c1ccccc1 -0.78% (inactive)

Tell me the measured inhibition of Cc1cccc(C2NS(=O)(=O)N=C2N)c1 (stereo unspecified) , please. 4.81% (inactive)

What measured inhibition goes with COc1ccc(CNc2ccc(Br)cc2)cc1 ? 9.45% (inactive)

Entry Cc1ccc(NCc2cccnc2)cc1 has what inhibition? 9.95% (inactive)

Look up inhibition: Cc1ccc(S(=O)(=O)N2CC3(O)CN(C(=O)OC(C)C)N(C(=O)OC(C)C)CC3(OC(=O)NC3CCCC3)C2)cc1 (stereo unspecified) 9.25% (inactive)

Need inhibition, item COc1ccc(Br)cc1CN1CCCCCCC1 11.8% (inactive)

I would be grateful if you could share the reported inhibition for C(=N\n1cnnc1)/c1ccc(N2CCOCC2)cc1 . 8.48% (inactive)

Data request, read-out inhibition, for O=C(NCCCN1CCCC1)c1ccc2c(c1)N(Cc1ccc(F)cc1)C(=O)c1ccccc1S2=O (stereo unspecified) 6.31% (inactive)

Please look up its inhibition: COc1ccc(C(=O)N/C(=C\c2cc(OC)c(OC)cc2[N+](=O)[O-])C(=O)NCC(=O)O)cc1 5.33% (inactive)

// returns reported inhibition for input C=CCc1ccc(OCCOCCNCCOC)c(OC)c1 8.29% (inactive)

# get_value(readout='inhibition', item= NC(N)=Nc1ccc(C=C2C=Cc3ccccc32)cc1 ) 1.28% (inactive)

Look at this molecule and give its reported inhibition. Cn1c(-c2ccccc2)c(C(=O)CC#N)c2ccccc21 5.99% (inactive)

Would you mind telling me what inhibition value was observed for Cc1ccc(N/N=C/c2ccc(N3CCOCC3)cc2)cc1C ? 24.2% (inactive)

What inhibition value was documented for this molecule, CN(c1ccccc1)S(=O)(=O)c1cccc(C(=O)NCc2ccccc2)c1 ? 5.13% (inactive)

---

- assaySystem: Rac GTPase-activating protein 1 (Homo sapiens)
- assayExplanation: blockers of MgcRacGAP-driven Rac1 GTP hydrolysis – biochemical, ADP Hunter fluorescence, primary and confirmatory, confirmation (AID 624330);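 also: fluorescence reports GDP produced by GAP-driven GTP hydrolysis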
- conditionLabel: MgcRacGAP-stimulated Rac1 GTP hydrolysis, at 30 µM, stronger effect = higher value, GST-tagged Rac1 F28L mutant substrate
Screen size: about 340,000 compounds; about 2,100 (0.62%) were called active. Not all results are given here. Measured potencies and affinities stand elsewhere.
observedProperty: inhibition (%)
Field format: number, assumed %, no unit text.

chemicalString	observedProperty	number
O=C1/C(=C/c2ccncc2)N=C2CCCCCN12	inhibition	3.48
CC(=O)Nc1ccc(OC(=O)c2cc3cc(Br)ccc3oc2=O)cc1	inhibition	10.4

Quick one: inhibition for C/C(=N/OCC(=O)Nc1ccc(C)cc1C)c1cccs1 ? 17

---

- assaySystem: Rac GTPase-activating protein 1 (Homo sapiens)
- assayExplanation: blockers of MgcRacGAP-driven Rac1 GTP hydrolysis – biochemical, ADP Hunter fluorescence, primary and confirmatory, confirmation (AID 624330);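 also: fluorescence reports GDP produced by GAP-driven GTP hydrolysis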
- conditionLabel: MgcRacGAP-stimulated Rac1 GTP hydrolysis, at 30 µM, stronger effect = higher value, GST-tagged Rac1 F28L mutant substrate
Hit rate of the full screen: of about 340,000 compounds, about 2,100 (0.62%) were called active. Only a sample is shown. Measured potencies and affinities stand elsewhere.
observedProperty: inhibition (%)
Express your answer in %, writing the number without its unit.

molecule	inhibition [%]
COc1ccccc1/C=N/NC(=O)C(NC(=O)c1ccccc1)=C(C)C	4.44
CCC(C(=O)Nc1cc(C)nn1-c1nc(C)cc(C)n1)c1ccccc1 (stereo not given)	13.7
CCOc1ccc(NC(=O)CN2CCN(c3ccc(F)cc3)CC2)cc1S(=O)(=O)N1CCCC1	10.6
Cc1ccc(CN(C)CCc2ccccn2)cc1	13
COc1ccc(CCN(C)Cc2ccc(OC)c(OCc3ccccc3)c2)cc1OC	18.3
Nc1ccc(C(=O)OCCCc2nc3ccccc3[nH]2)cc1	10
C[C@@H]1CN([C@H](C)CO)C(=O)c2cc(NC(=O)Nc3ccc(F)cc3)ccc2O[C@@H](C)CCCCO[C@H]1CN(C)Cc1ccc(C(=O)O)cc1	10.2
O=C(NN=Cc1c(F)cccc1F)c1ccccc1NS(=O)(=O)c1cccs1	3.9

I'd like to know its inhibition. The molecule in question is CCOC(=O)c1c(C)c(C(=O)Nc2ccc(F)cc2)c(C)n1C 1.27

Entry under review: Cc1cc(=O)oc2c3c(cc(OCC(=O)NC(Cc4ccc(Cl)cc4)C(=O)O)c12)OC(C)(C)CC3 (stereo not given) . Reported inhibition? 6.3

Requested read-out: inhibition. Entry: O=C(NCc1ccco1)c1cc2sccc2n1Cc1ccccc1 12.8

Entry source: PubChem BioAssay AID624330
